Cited source for all entries: paper PMC12846068

# ASSAY_TARGET: mOATP1B2 (Mus musculus, UniProt Q9JJL3)
# Construct: The full-length mOATP1B2 and rOATP1B2 consist of 689 and 678 amino acids
# Sequence (Q9JJL3 1-689): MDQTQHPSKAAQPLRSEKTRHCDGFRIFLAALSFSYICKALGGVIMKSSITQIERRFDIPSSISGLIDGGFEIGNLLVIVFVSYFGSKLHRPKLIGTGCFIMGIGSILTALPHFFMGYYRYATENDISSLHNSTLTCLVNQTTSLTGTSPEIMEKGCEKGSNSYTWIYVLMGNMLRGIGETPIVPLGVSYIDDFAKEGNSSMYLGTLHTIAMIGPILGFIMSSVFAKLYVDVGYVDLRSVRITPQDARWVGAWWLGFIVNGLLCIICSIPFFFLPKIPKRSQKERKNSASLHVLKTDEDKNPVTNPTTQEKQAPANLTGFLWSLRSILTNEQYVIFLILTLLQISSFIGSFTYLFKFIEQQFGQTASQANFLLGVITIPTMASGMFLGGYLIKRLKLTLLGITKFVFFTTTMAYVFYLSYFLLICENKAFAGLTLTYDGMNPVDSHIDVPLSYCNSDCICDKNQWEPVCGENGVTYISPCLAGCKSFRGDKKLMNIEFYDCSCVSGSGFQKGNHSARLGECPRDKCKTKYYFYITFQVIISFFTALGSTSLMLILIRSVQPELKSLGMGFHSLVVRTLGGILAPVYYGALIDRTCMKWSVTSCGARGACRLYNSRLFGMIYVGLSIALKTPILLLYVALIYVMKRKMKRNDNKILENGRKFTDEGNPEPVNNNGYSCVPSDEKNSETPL
# ASSAY_PROCEDURE: cis-inhibition of mOATP1B2-mediated E1S or TCA uptake in HEK293 cells
# Format: cell-based
# MEASUREMENT_CONDITIONS: HEK293, read-out: Inhibitory effect on mOATP1B2-mediated TCA uptake, 10 µM drug, 1 µM [3H]-TCA, 1 min
// No strictly below 30% in inhibition at 10 µM; Yes otherwise

Asked: Check the entry CC(=O)N1CCN(c2ccc(OCC3COC(Cn4ccnc4)(c4ccc(Cl)cc4Cl)O3)cc2)CC1 (centres unmarked) [Ketoconazole, ketoconazole] : does inhibition at 10 µM equal or exceed 30%?
Given back: No
